- ASSAY SUMMARY: Prodrug activation in human U-251MG cells assessed as increase in cold atmospheric plasma (CAP) induced ROS-mediated cytotoxicity treated with CAP for 40 secs followed by incubated with compound for 48 hrs in presence of NAC by alamar blue assay
- Type: functional, cell-based
- CONDITIONS: U-251, 48 h
PARAMETER MEASURED: IC50

Query: Could you tell me which IC50 is on file for `Cc1cc2[nH]c(-c3ccccc3)cc(=O)n2n1` ?
Result: 95.7 µM

----------
- ASSAY SUMMARY: Prodrug activation in human U-251MG cells assessed as increase in cold atmospheric plasma (CAP) induced ROS-mediated cytotoxicity treated with CAP for 20 secs followed by incubated with compound for 48 hrs by alamar blue assay
- Type: functional, cell-based
- CONDITIONS: U-251, 48 h
PARAMETER MEASURED: pIC50
Please treat pIC50 as minus the base-10 logarithm of the molar concentration.

Query: Report pIC50 for `Cc1cc2[nH]c(-c3ccccc3)cc(=O)n2n1` please.
Result: 4.51
